# Tgt: hCA IX (Homo sapiens)
# Construct: gene CA9; recombinant
# Assay overview: stopped-flow CO2 hydrase assay
# Type: biochemical
# Condition context: read-out: KI (μM)^a^,b / hCA IX
Field: Ki. Provide a value for each of the molecules that follow.
Give bare numbers, in µM.

Observe how each entry below is paired with its result.
Name the recorded Ki for N#Cc1ccc(-n2cc(C=C3C(=O)NC(=O)NC3=O)c(-c3cc4ccccc4c(=O)o3)n2)cc1 [X13] .
62.4

# lookup: Ki of O=C1NC(=O)C(=Cc2cn(-c3ccccc3)nc2-c2cc3ccccc3c(=O)o2)C(=O)N1 [X11]
46.2

Entry under review: Cc1c(-c2nn(-c3ccccc3)cc2C=C2C(=O)NC(=O)NC2=O)oc(=O)c2ccccc12 [X14] . Reported Ki?
54.6

Consider the additional molecule presented here.
Consider the molecule shown here: N#Cc1ccc(-n2cc(C=C3C(=O)NC(=S)NC3=O)c(-c3cc4ccccc4c(=O)o3)n2)cc1 [X18] What is its recorded Ki?
78.9
